Reference source for all entries: ChEMBL document CHEMBL3988442

# TESTED_SYSTEM: Protein translocase subunit SecA (Escherichia coli (strain K12))
# METHOD: Assay to Identify E. coli SecA ATPase Inhibitors
# Format: functional
# Set-up: scale not given: direction of the effect not stated beside the values
# MEASUREMENT_PARAMETERS: 30 µM
Measured potencies and affinities stand elsewhere.
Examples of compounds with documented Percent Effect follow.

COMPOUND: COc1cccc(C2CC(=O)Nc3nc(N4CCOCC4)sc32)c1OC (stereo unspecified)
Percent Effect, %: 63.9
//
COMPOUND: c1cnc(N2C[C@H]3CCN(c4cccnc4)C[C@H]3C2)nc1
Percent Effect, %: -6.23
//
COMPOUND: COCc1nc(C(=O)N2CCCCC2Cn2cccn2)cs1 (stereo unspecified)
Percent Effect, %: -1.64
//
COMPOUND: CC(C)c1nn(CC(=O)N2CCCCC2)c(=O)c2c1cnn2C(C)(C)C
Percent Effect, %: -2.78
//
COMPOUND: c1cnn(-c2ccc(CN3CCOC(Cn4cncn4)C3)cc2)c1 (stereo unspecified)
Percent Effect, %: -2.23
//
COMPOUND: O=C(c1ccco1)N1CCCC1C1CCN(Cc2ccccc2)CC1 (stereo unspecified)
Percent Effect, %: -3.11

---

Examples of compounds with documented Percent Effect follow.
# TESTED_SYSTEM: Proteasome subunit beta (Trypanosoma cruzi) (UniProt O96673)
# Sequence (O96673 as listed by the source): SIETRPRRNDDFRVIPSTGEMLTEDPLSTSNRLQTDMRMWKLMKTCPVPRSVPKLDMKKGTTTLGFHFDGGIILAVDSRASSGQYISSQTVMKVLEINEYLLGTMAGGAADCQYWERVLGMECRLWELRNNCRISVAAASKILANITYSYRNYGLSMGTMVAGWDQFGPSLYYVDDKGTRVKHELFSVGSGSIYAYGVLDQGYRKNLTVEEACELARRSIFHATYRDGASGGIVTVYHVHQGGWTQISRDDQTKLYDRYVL
# METHOD: Trypanosoma cruzi proteasome chymotrypsin-like activity (TcProtChymo) assay. Note: in the data most compounds retested in dose-response had high values.
# Assay type: functional
# Parameters: scale not given: direction of the effect not stated beside the values
# MEASUREMENT_PARAMETERS: 9.37 µM

COMPOUND: CN1CCCN(C(=O)NCc2csc(Br)c2)CC1
TESTED_SYSTEM: Proteasome subunit beta (Trypanosoma cruzi) (UniProt O96673)
Percent Effect [%]: 3.05
//
COMPOUND: CC(C)c1ncc(CN2C[C@@H](CN3CCC(CO)CC3)[C@@H](CO)C2)cn1
TESTED_SYSTEM: Proteasome subunit beta (Trypanosoma cruzi) (UniProt O96673)
Percent Effect [%]: 19.7
//
COMPOUND: COCCOc1ccccc1CNCc1c(C)nn(C)c1N(C)C
TESTED_SYSTEM: Proteasome subunit beta (Trypanosoma cruzi) (UniProt O96673)
Percent Effect [%]: 1.26
//
COMPOUND: CCS(=O)(=O)N1CCC2(CCC2NC(=O)c2ccn(C)c2)CC1 (stereo unspecified)
TESTED_SYSTEM: Proteasome subunit beta (Trypanosoma cruzi) (UniProt O96673)
Percent Effect [%]: 18.8
//
COMPOUND: O=C(CN1CCCCC1Cn1cncn1)NC1CCN(C2CC2)CC1 (stereo unspecified)
TESTED_SYSTEM: Proteasome subunit beta (Trypanosoma cruzi) (UniProt O96673)
Percent Effect [%]: 5.86
//
COMPOUND: Cc1cccc(N2CCN(CCNC(=O)c3ccnn3C)CC2)c1
TESTED_SYSTEM: Proteasome subunit beta (Trypanosoma cruzi) (UniProt O96673)
Percent Effect [%]: 14.6
//
COMPOUND: CC1c2ncc(CN3CCN(C)CC3)n2CCN1Cc1cccnc1 (stereo unspecified)
TESTED_SYSTEM: Proteasome subunit beta (Trypanosoma cruzi) (UniProt O96673)
Percent Effect [%]: 7.35
//
COMPOUND: O=C(CCn1cncn1)NC1(c2cccc(Br)c2)CCC1
TESTED_SYSTEM: Proteasome subunit beta (Trypanosoma cruzi) (UniProt O96673)
Percent Effect [%]: 10.5
//
COMPOUND: Cc1cc(C)n(C2CCCN(C(=O)CCCNc3ncccn3)C2)n1 (stereo unspecified)
TESTED_SYSTEM: Proteasome subunit beta (Trypanosoma cruzi) (UniProt O96673)
Percent Effect [%]: 10.6
//
COMPOUND: CC(C)n1cnc2c1C(C(=O)NCCC#N)N(Cc1ccccc1)CC2 (stereo unspecified)
TESTED_SYSTEM: Proteasome subunit beta (Trypanosoma cruzi) (UniProt O96673)
Percent Effect [%]: 14
//
COMPOUND: NC(=O)C1(Cc2ccccc2-c2ccccc2)CCCN(CC2CC2)C1 (stereo unspecified)
TESTED_SYSTEM: Proteasome subunit beta (Trypanosoma cruzi) (UniProt O96673)
Percent Effect [%]: 5.2
